- Tested on: MARIMO
- EXPERIMENTAL_DETAILS: cell viability relative to vehicle control; higher = less cytotoxic;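 note: after 48 h exposure read by CellTiter-Glo luminescence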
- APPLIED_CONDITIONS: 10 µM; SRSF2 genotype: SRSF2 P95H/wt
Counter-ions that a name gives are not always drawn.
Criterion: cell viability strictly less than 70%. Met: 1. Not met: -1.

# COMPOUND, CATEGORY
data = [
    ("CCN(CCO)CCCOc1ccc2c(Nc3cc(CC(=O)Nc4cccc(F)c4)[nH]n3)ncnc2c1 [Barasertib (AZD1152-HQPA)]", -1),
    ("Nc1nnc(-c2cccc(Cl)c2Cl)c(N)n1 [Lamotrigine]", -1),
    ("CC(C)NC[C@H](O)COc1ccc(CCOCC2CC2)cc1 [Levobetaxolol HCl]", -1),
    ("CCOC(=O)C1=C[C@]2(CC)CCCN3CCc4c(n1c1ccccc41)[C@@H]32 [Vinpocetine (Cavinton)]", -1),
    ("O=C(c1ccccc1)c1ccc2nc(NC(=O)c3csc(C4CCN(c5ncnc6ccsc56)CC4)n3)[nH]c2c1", 1),
    ("Nc1nc(N)nc(-c2cc(Cl)ccc2Cl)n1 [Irsogladine]", -1),
    ("Cc1[nH]c2ccccc2c1CCNCc1ccc(/C=C/C(=O)NO)cc1 [Panobinostat (LBH589)]", 1),
    ("COCCOc1ccc2c(c1)ncn2-c1ccc2cccc(N3CCC(N)CC3)c2n1", 1),
    ("O=C1c2c(O)cc(O)cc2O[C@H](c2cc(O)c(O)c(O)c2)[C@H]1O [Dihydromyricetin (Ampeloptin)]", -1),
    ("Cc1ccc(NC(=O)c2ccc(CN3CC[C@H](N(C)C)C3)c(C(F)(F)F)c2)cc1Nc1nccc(-c2cncnc2)n1 [Bafetinib (INNO-406)]", 1),
    ("CC1(C)Cc2c(sc(NC(=O)c3ccn[nH]3)c2C(N)=O)C(C)(C)O1", -1),
    ("O=C(O)c1cc(O)ccc1O [Gentisic acid]", -1),
    ("CN1C(C(=O)Nc2ccccn2)=C(O)c2sccc2S1(=O)=O [Tenoxicam(Mobiflex)]", -1),
    ("Clc1ccc2c(c1)CCc1cccnc1C2=C1CCNCC1 [Desloratadine]", -1),
    ("Nc1c2c(nc3ccccc13)CCCC2 [tacrine hydrochlorid]", -1),
    ("OC[C@H]1O[C@H](OC[C@H]2O[C@H](O[C@]3(CO)O[C@H](CO)[C@@H](O)[C@@H]3O)[C@H](O)[C@@H](O)[C@@H]2O)[C@H](O)[C@@H](O)[C@H]1O [D-(+)-Raffinose pentahydrate]", -1),
    ("CC(C)=CCC[C@](C)(O[C@@H]1O[C@H](CO)[C@@H](O)[C@H](O)[C@H]1O)[C@H]1CC[C@]2(C)[C@@H]1[C@H](O)C[C@@H]1[C@@]3(C)CC[C@H](O)C(C)(C)[C@@H]3CC[C@]12C [Ginsenoside CK]", -1),
    ("COc1cccc2c1C(=O)c1c(O)c3c(c(O)c1C2=O)CC(O)(C(=O)CO)CC3OC1CC(N)C(O)C(C)O1 (stereo not drawn) [Doxorubicin (Adriamycin) HCl]", 1),
    ("Cc1cccc(-c2[nH]c(CNc3ccccc3F)nc2-c2ccc3ncnn3c2)n1", -1),
    ("CCCCc1nc(C)c(CC(=S)N(C)C)c(=O)n1Cc1ccc(-c2ccccc2-c2nnn[nH]2)cc1 [Fimasartan]", -1),
    ("NC(=O)c1ncn([C@@H]2O[C@H](CO)[C@@H](O)[C@H]2O)c1N [AICAR (Acadesine)]", -1),
    ("COC(=O)[C@@H]1[C@H]2C[C@H]3c4[nH]c5ccccc5c4CCN3C[C@@H]2CC[C@@H]1O [Yohimbine hydrochloride (Antagonil)]", -1),
    ("C/C=C(/C)C(=O)O[C@H]1Cc2cc3ccc(=O)oc3cc2OC1(C)C [Decursinol angelate]", -1),
    ("C=C1C2CCC(C2)C1(C)CCC=C(C)CO (stereo not drawn) [Santalol]", -1),
    ("Cc1nc(NC(=O)N2CCC[C@H]2C(N)=O)sc1-c1ccnc(C(C)(C)C(F)(F)F)c1 [Alpelisib (BYL719)]", 1),
    ("COc1cc2oc(=O)ccc2cc1O [Isoscopoletin]", -1),
    ("COc1cccc(-c2cc(NCc3ccc4c(c3)OCO4)nc(N)n2)c1 [Wnt agonist 1]", 1),
    ("CC1Cc2ccccc2N1NC(=O)c1ccc(Cl)c(S(N)(=O)=O)c1 (stereo not drawn) [Indapamide (Lozol)]", -1),
    ("O=C(NCC1(c2nc(-c3ccccc3)cs2)CCOCC1)c1cccc(-c2noc(C(F)(F)F)n2)c1", -1),
    ("COc1cc(N2CCC(N3CCN(C)CC3)CC2)ccc1Nc1ncc(Cl)c(Nc2ccccc2S(=O)(=O)C(C)C)n1", 1),
    ("Cc1cc(C)c2c(c1)[C@@H](N(Cc1cc(C(F)(F)F)cc(C(F)(F)F)c1)c1nnn(C)n1)CCCN2C[C@H]1CC[C@H](C(=O)O)CC1", -1),
]

---

Documented cell viability across a set of compounds
- Test system: MOLM14
- EXPERIMENTAL_DETAILS: cell viability relative to vehicle control; higher = less cytotoxic
- APPLIED_CONDITIONS: 10 µM; SRSF2 genotype: SRSF2 P95H/wt
Counter-ions that a name gives are not always drawn.

# COMPOUND, cell viability (%)
rows = [
    ("CCCN[C@H]1CCc2nc(N)sc2C1 [Pramipexole dihydrochloride monohydrate]", 66.5),
    ("CN(C)CCc1c[nH]c2ccc(Cn3cncn3)cc12 [Rizatriptan Benzoate (Maxalt)]", 86.7),
    ("OCCN(CCO)c1nc(N2CCCCC2)c2nc(N(CCO)CCO)nc(N3CCCCC3)c2n1 [Dipyridamole (Persantine)]", 111),
    ("COc1cc(N)c(Cl)cc1C(=O)NC1CCN(CCCOc2ccc(F)cc2)CC1OC (configuration not stated) [Cisapride hydrate]", 99.8),
    ("Nc1ccc(C(=O)NCC(=O)O)cc1 [4-Aminohippuric Acid]", 95.7),
    ("O=S(=O)(O)c1cc(O)ccc1O [Calcium Dobesilate]", 98.4),
    ("CC(C)n1nc(-c2cc3cc(O)ccc3[nH]2)c2c(N)ncnc21 [Torkinib (PP242)]", 12.8),
    ("CC(=O)N1CCN(c2ccc(OCC3COC(Cn4ccnc4)(c4ccc(Cl)cc4Cl)O3)cc2)CC1 (configuration not stated) [Ketoconazole]", 40.9),
    ("O=C(Nc1ccc(Br)cc1)c1ccc(Br)c(S(=O)(=O)NCc2ccccc2)c1", 96.9),
    ("O=C(c1ccc(Cl)cc1)N(Cc1ccccc1)C1CCCCC1", 78.1),
    ("CCC1(c2c[nH]cn2)Cc2ccccc2C1 [Atipamezole]", 78.9),
    ("COc1ccc(C(=O)O)cc1O [Isovanillic acid]", 87.1),
    ("Nc1ncnc2c1ncn2[C@@H]1O[C@H](CO)C[C@H]1O [Cordycepin]", 102),
    ("CC(C)OC(=O)[C@H](C)N[P@](=O)(OC[C@H]1O[C@@H](n2ccc(=O)[nH]c2=O)[C@](C)(F)[C@@H]1O)Oc1ccccc1 [Sofosbuvir(PSI-7977)]", 102),
    ("COC[C@H]1C[C@@H](c2nc(-c3ccc4c(c3)COc3cc5c(ccc6nc([C@@H]7CC[C@H](C)N7C(=O)[C@@H](NC(=O)OC)C(C)C)[nH]c65)cc3-4)c[nH]2)N(C(=O)[C@H](NC(=O)OC)c2ccccc2)C1 [Velpatasvir]", 90.1),
    ("CC=Cc1cc(OC)c2c(c1)C(C)C(c1ccc(O)c(OC)c1)O2 (configuration not stated) [Dehydrodiisoeugenol]", 83.3),
    ("COC(=O)C1=COC(OC2OC(CO)C(O)C(O)C2O)C2C(CO)=CC(O)C12 (configuration not stated)", 105),
]

---

- System: K562
- EXPERIMENTAL_DETAILS: cell viability relative to vehicle control; higher = less cytotoxic
- APPLIED_CONDITIONS: 10 µM; SRSF2 genotype: SRSF2 wt/wt
Counter-ions that a name gives are not always drawn.

# COMPOUND, UNIT_INFO, cell viability
records = [
    ("O.O=C([O-])c1ncccc1O.O=C([O-])c1ncccc1[O-].[H+].[O]=[V][OH] [VO-Ohpic trihydrate]", "%", 95.5),
    ("COc1cccc(-n2c(=O)[nH]c3cc(Cl)n(-c4ccc(-c5cccc(OC)c5O)cc4)c3c2=O)c1", "%", 93),
    ("CN1CCC(=C2c3ccccc3CCc3cccnc32)CC1 [Azatadine dimaleate]", "%", 94.1),
    ("Nc1[nH]cnc2ncnc1-2 [Adenine sulfate]", "%", 99.3),
    ("CC(C)=CCCC(C)(O)C1CCC2(C)C1C(O)CC1C3(C)CCC(OC4OC(CO)C(O)C(O)C4OC4OC(CO)C(O)C(O)C4O)C(C)(C)C3CCC12C [(20R)Ginsenoside Rg3]", "%", 99.1),
    ("Cc1oc2nc3c(c(NC(=O)CN4CCCC4=O)c2c1C)CCCC3", "%", 105),
    ("CN1CC[C@H](c2c(O)cc(O)c3c(=O)cc(-c4ccccc4Cl)oc23)[C@H](O)C1", "%", 8.24),
    ("NS(=O)(=O)c1ccc(NC(=O)Nc2ccc(F)cc2)cc1", "%", 107),
]
